test_system: human DLL3 (Homo sapiens)
Bridge positions count the residues as written; N and C are the ends. Peptide text beside a SMILES is read from it.
observation_type: Kd (nM)
Report the value in nM with no unit label.

Determine reported Kd for CSCC[C@H](NC(C)=O)C(=O)N[C@@H](CO)C(=O)N[C@@H](CC(=O)O)C(=O)N[C@H]1CSSC[C@@H](C(=O)N2CCC[C@H]2C(=O)N[C@@H](Cc2ccccc2)C(=O)N[C@@H](CC(=O)O)C(N)=O)NC(=O)[C@H](CC(N)=O)NC(=O)[C@H](Cc2c[nH]c3ccccc23)NC(=O)[C@H](CCC(N)=O)NC(=O)[C@H](CC(C)C)NC(=O)[C@H](Cc2c[nH]c3ccccc23)NC1=O [Cpd #1, Ac-M-S-D-C(3)-W-L-Q-W-N-C(3)-P-F-D-CONH2] (Ac-MSDCWLQWNCPFD-NH2; disulfide 4-10) ; test system: human DLL3 (Homo sapiens).
11
